test: Human HepG2 cell viability assay in 384 well format; assay type: toxicity, cell-based; design: dose 125 nL, time 70.5 hour; concentration not given beside the values; settings: HepG2 cells, read-out: Inhibition
measured parameter: cytotoxicity at 70.5 h (%)
Please state the figure in %; there is no need to write the unit.

These solved cases illustrate the format of a correct answer.
[
  {
    "molecule": "O=c1c2sccc2ncn1Cc1cc(C2CC2)[nH]n1",
    "cytotoxicity at 70.5 h [%]": -8.84
  },
  {
    "molecule": "CCC(Oc1ccc(N(C)S(C)(=O)=O)cc1)C(=O)N(C)C (centres undefined)",
    "cytotoxicity at 70.5 h [%]": -3.36
  },
  {
    "molecule": "CCC(CC)C(=O)NS(=O)(=O)c1ccc(C#N)cc1C(F)(F)F",
    "cytotoxicity at 70.5 h [%]": -0.398
  }
]

The measured cytotoxicity at 70.5 h associated with O=C(c1cccs1)N1CCC2(C1)c1ccccc1S(=O)(=O)N2CC1CC1 (centres undefined) reads -3.76

# cytotoxicity at 70.5 h of COCCC1(CNC(=O)NCC2CCCS2)CCCC1 (centres undefined) = -3.7

response.value for "CNC(=O)[C@@H]1[C@@H](OC(=O)Nc2ccccc2)C(=O)N(C)C12CCNCC2" (field: cytotoxicity at 70.5 h) = -2.76

Per the record, "CC1=N[C@@]2(CC[C@@H]3CN(C(=O)NCc4cccc(F)c4)C[C@@H]32)C(=O)N1" has cytotoxicity at 70.5 h of -3.91

For "Cc1ncc(C(=O)NCCNC(=O)c2ccccc2)s1" the molecule record lists cytotoxicity at 70.5 h as -6.97

According to the records, this molecule "O=C(c1coc(-c2ccccc2)n1)N1CCCCC1" displays cytotoxicity at 70.5 h of -10.3

Note to self: cytotoxicity at 70.5 h recorded for CC(C)c1noc(CN2CCC(C3CCCCCN3S(C)(=O)=O)CC2)n1 (centres undefined) was 11

Per the records, this molecule ( Cc1cncc(C2CCCN2CCO)n1 (centres undefined) ) has cytotoxicity at 70.5 h equal to -9.94

// O=C(c1ccc(F)c(F)c1)N1CCN2CCCC2C1 (centres undefined) : cytotoxicity at 70.5 h value = 3.92

# cytotoxicity at 70.5 h of "O=C(CNC(=O)C1CCCC1)NCc1cnn(-c2ccc(F)cc2F)c1" = -1.74

In plain terms, "Cc1ccc(Cl)cc1S(=O)(=O)NCc1cnc(N(C)C)n1C" has a documented cytotoxicity at 70.5 h of -11.7

Entry under test: Cc1cc(C)n(CC2CN(CC(=O)Nc3c(C)n[nH]c3C)CCO2)n1 (centres undefined) . Its cytotoxicity at 70.5 h was -8.05

The recorded cytotoxicity at 70.5 h for entry COc1ccc(C(CO)NC(=O)Nc2cccc(F)c2)cc1 (centres undefined) equals -4.24

Recorded result, Cc1noc(C)c1CN1CCOC2(CCCN(c3nccs3)C2)C1 (centres undefined) , cytotoxicity at 70.5 h: 29.8

For reference, reported cytotoxicity at 70.5 h for "CC(C)NC(=O)CNC(=O)OC(C)(C)C" stands at -13

Record summary for "O=C(Cc1ccccc1Cl)Nc1cc(N2CCCC2)ncn1" : reported cytotoxicity at 70.5 h = -0.171

The recorded cytotoxicity at 70.5 h for entry Cn1cc(C2CCCN2C(=O)Cc2coc(-c3ccccc3)n2)cn1 (centres undefined) equals -7.27
